Some compounds, each annotated with its measured Cell viability (Fold DMSO).
test system: Huh7.5 cells; test: Cell viability, CellTiter-Glo luminescent assay; details: Table S3, NPP3C analogues, 50 µM, Huh7.5

COMPOUND	Cell viability (Fold DMSO)
NCc1ccc2cn[nH]c2c1	0.77
Nc1ccc(C(=O)Nc2ccccc2)cc1	0.98
CC(=O)c1ccc2cn(C)nc2c1	0.96
O=C(Nc1ccccc1Cl)c1cccnc1	0.95
O=C(NNc1ccccc1)c1ccncc1	0.67
O=C(NNC(=O)c1ccncc1)Nc1ccccc1	0.88
CC(=O)c1ccc2c(c1)OCO2	1.15
Nc1cccc(-c2cccnc2)c1	0.93
CC(=O)c1cccc2cn[nH]c12	0.96
O=C(Nc1ccc(C(F)(F)F)cc1)c1cccnc1	0.87
OCc1ccc2cn[nH]c2c1	0.94
N#CC(Cc1cccnc1)C(=O)Nc1ccccc1 (stereo not shown)	0.93
O=C(c1ccccc1)c1cccnc1	0.95
